Molecular target: microRNA 21
Assay: Binding affinity to biotinylated pre-miRNA-21 (unknown origin) by SPR analysis
Format: nucleic-acid assay
Details: read-out: Kd
pKd: −log10 of the molar value.
QUANTITY_MEASURED: pKd

Query string: What value of pKd on microRNA 21 does `CN1CCN(c2ccc3nc(-c4ccc5nc(-c6ccc(O)cc6)[nH]c5c4)[nH]c3c2)CC1` have?
Result string: 6.15 to 7.00

Query string: What value of pKd on microRNA 21 does C=C1c2cccc(O)c2C(=O)C2=C(O)[C@]3(O)C(=O)C(C(N)=O)=C(O)[C@@H](N(C)C)[C@@H]3[C@@H](O)[C@H]12 [METHACYCLINE] have?
Result string: 5.00

Query string: What value of pKd on microRNA 21 does C=C1c2c(Cl)ccc(O)c2C(=O)C2=C(O)[C@]3(O)C(=O)C(C(N)=O)=C(O)[C@@H](N(C)C)[C@@H]3[C@@H](O)[C@H]12 [MECLOCYCLINE] have?
Result string: 5.68

Query string: What value of pKd on microRNA 21 does NC[C@@H]1O[C@H](O[C@H]2[C@@H](O)[C@H](O[C@@H]3[C@@H](O)[C@H](N)C[C@H](N)[C@H]3O[C@H]3O[C@H](CN)[C@@H](O)[C@H](O)[C@H]3N)O[C@@H]2CO)[C@H](N)[C@@H](O)[C@@H]1O [FRAMYCETIN] have?
Result string: 6.15 to 7.00

Query string: What value of pKd on microRNA 21 does NC[C@H]1O[C@H](O[C@H]2[C@H](O)[C@@H](O[C@H]3O[C@H](CO)[C@@H](O)[C@H](N)[C@H]3O)[C@H](N)C[C@@H]2N)[C@H](O)[C@@H](O)[C@@H]1O [KANAMYCIN] have?
Result string: 6.15 to 7.00

Query string: What value of pKd on microRNA 21 does CN[C@@H]1[C@H](O[C@H]2[C@H](O[C@H]3[C@H](O)[C@@H](O)[C@H](N=C(N)N)[C@@H](O)[C@@H]3N=C(N)N)O[C@@H](C)[C@]2(O)C=O)O[C@@H](CO)[C@H](O)[C@H]1O [STREPTOMYCIN] have?
Result string: 6.15 to 7.00

* * *

What pIC50 was measured for each of the following?
Target: microRNA 21
Test: Inhibition of Dicer mediated biotinylated pre-miRNA-21 (unknown origin) maturation preincubated for 15 mins followed by pre-miRNA-21 addition and measured after 5 hrs by cat-ELCCA
pIC50: −log10 of the molar value.

Query string: What value of pIC50 on microRNA 21 does `C=C1c2cccc(O)c2C(=O)C2=C(O)[C@]3(O)C(=O)C(C(N)=O)=C(O)[C@@H](N(C)C)[C@@H]3[C@@H](O)[C@H]12` have?
Result string: 3.36 to 4.25

Query string: What value of pIC50 on microRNA 21 does `CN(C)[C@@H]1C(O)=C(C(N)=O)C(=O)[C@@]2(O)C(O)=C3C(=O)c4c(O)cccc4[C@@](C)(O)[C@H]3C[C@@H]12` have?
Result string: 3.00 to 3.36

Query string: What value of pIC50 on microRNA 21 does `CN(C)[C@@H]1C(O)=C(C(N)=O)C(=O)[C@@]2(O)C(O)=C3C(=O)c4c(O)ccc(Cl)c4[C@@](C)(O)[C@H]3C[C@@H]12` have?
Result string: 3.56 to 3.81

Query string: What value of pIC50 on microRNA 21 does `C=C1c2c(Cl)ccc(O)c2C(=O)C2=C(O)[C@]3(O)C(=O)C(C(N)=O)=C(O)[C@@H](N(C)C)[C@@H]3[C@@H](O)[C@H]12` have?
Result string: 3.71 to 4.21

Query string: What value of pIC50 on microRNA 21 does `CN(C)[C@@H]1C(O)=C(C(N)=O)C(=O)[C@@]2(O)C(O)=C3C(=O)c4c(O)cccc4[C@@](C)(O)[C@H]3[C@H](O)[C@@H]12` have?
Result string: 3.04 to 3.70

Query string: What value of pIC50 on microRNA 21 does `C[C@H]1c2cccc(O)c2C(=O)C2=C(O)[C@]3(O)C(=O)C(C(N)=O)=C(O)[C@@H](N(C)C)[C@@H]3[C@@H](O)[C@@H]21` have?
Result string: 2.85 to 3.36

Query string: What value of pIC50 on microRNA 21 does `CN(C)c1ccc(O)c2c1C[C@H]1C[C@H]3[C@H](N(C)C)C(O)=C(C(N)=O)C(=O)[C@@]3(O)C(O)=C1C2=O` have?
Result string: 3.27 to 3.52

Query string: What value of pIC50 on microRNA 21 does NC(=O)C1=C(O)C[C@@H]2C[C@@H]3Cc4cccc(O)c4C(=O)C3=C(O)[C@]2(O)C1=O [INCYCLINIDE] have?
Result string: 3.33 to 3.45
